All figures here come from paper PMC12040169.

assay: in vitro; conditions: human, hela cells, % viability
resultType: viability at 28.5 h, 10 µM (%)
Answers are plain numbers, in %.

Worked cases, answers included:
1) CCOc1nc(NCCC2=CCCCC2)nc(OCC)n1 :: 86.9
2) Brc1ccc2c(c1)[C@H]1C=CC[C@H]1[C@@H](c1ccccc1)N2 :: 89
3) Cc1nc2c(C(=O)NCCC3OCCO3)cnn2c(C)c1Cc1cccnc1 :: 108
4) COc1ccc(-c2nnc([C@H]3CCN(Cc4cccc(C#N)c4)C3)o2)cc1 :: 94.8

Read the next record carefully.
State the recorded viability at 28.5 h, 10 µM for this entry: `CCOC(=O)C1CCN(S(=O)(=O)c2ccc(C(C)(C)C)cc2)CC1`
83.5
